measurement name: glass transition temperature (°C)

- *CCC(C)C(*)(C)C(=O)OC (repeat unit): 45.00

(1) *CCCCc1ccc(-c2c(-c3ccccc3)cc(-c3ccc(-c4cc(-c5ccccc5)c(-c5ccc(*)cc5)c(-c5ccccc5)c4-c4ccccc4)cc3)c(-c3ccccc3)c2-c2ccccc2)cc1 (repeat unit)
(2) *CCCCCCCCCCCCCCCCOC(=O)CC/C=C/CCC(=O)O* (repeat unit)
(3) *CC(*)(C)C(=O)Oc1ccc(C(=O)Oc2ccc(Oc3ccccc3)cc2)cc1 (repeat unit)
(4) *C(=O)Nc1cccc(NC(=O)c2ccc3c(c2)C(=O)N(c2cc(-c4nc5ccccc5o4)cc(N4C(=O)c5ccc(*)cc5C4=O)c2)C3=O)n1 (repeat unit)
(5) *Oc1cccc(NC(=O)CCCCCC(=O)Nc2ccc(*)cc2)c1 (repeat unit)
## Input // smallest glass transition temperature at index 0, largest at the end Answer by listing the labels in the requested order.
## Output 2, 3, 5, 1, 4

(a) *[Si](*)(C)c1ccc(COCCN(CC)c2ccc(/N=N/c3ccc([N+](=O)[O-])cc3)cc2)cc1 (repeat unit)
(b) *c1ccc(Oc2cccc(N3C(=O)c4ccc(Oc5ccc6cc(Oc7ccc8c(c7)C(=O)N(*)C8=O)ccc6c5)cc4C3=O)c2)cc1 (repeat unit)
(c) *CCCCCCCCCCCCCCCCCCCCC(*)COCCOCCOCCOCCOCc1ccc2ccc3cccc4ccc1c2c34 (repeat unit)
(d) *CC1CCC(CNC(=O)CCCCCCCCCCC(=O)N*)CC1 (repeat unit)
## Input // smallest glass transition temperature at index 0, largest at the end Answer by listing the labels in the requested order.
## Output c, d, a, b

(a) *Oc1ccc(S(=O)(=O)c2ccc3cc(S(=O)(=O)c4ccc(Oc5ccc(-c6ccc(*)cc6)cc5)cc4)ccc3c2)cc1 (repeat unit)
(b) *c1cccc(C(F)(F)C(F)(F)C(F)(F)C(F)(F)C(F)(F)c2cccc(N3C(=O)c4ccc(Oc5ccc6c(c5)C(=O)N(*)C6=O)cc4C3=O)c2)c1 (repeat unit)
(c) *c1ccc(Oc2ccc(-n3c(=O)c4cc5c(=O)n(*)c(=O)c5cc4c3=O)cc2)cc1 (repeat unit)
(d) *O[Si](C)(CCC(F)(F)F)CCC(F)(F)C(F)(F)C(F)(F)C(F)(F)C(F)(F)C(F)(F)C(F)(F)C(F)(F)CC[Si](*)(C)CCC(F)(F)F (repeat unit)
## Input // smallest glass transition temperature at index 0, largest at the end Answer by listing the labels in the requested order.
## Output d, b, a, c

(a) *OC(=O)Oc1ccc2c(c1)Oc1cc(*)ccc1C21c2ccccc2-c2ccccc21 (repeat unit)
(b) *O[Si](C)(CCC(F)(F)C(F)(F)C(F)(F)C(F)(F)C(F)(F)C(F)(F)F)O[Si](C)(C)c1ccc([Si](*)(C)C)cc1 (repeat unit)
## Input Consider entries a and b . Which has the numerically lower glass transition temperature? Answer with the label corresponding to your selection.
## Output b
(b: -55.00 °C, a: 295.00 °C)

Origin of the recorded values: the PolyMetriX glass transition set
